assay: MDA-MB-436 breast carcinoma cell growth inhibition, synergistic combos for chromothripsis tumors, BGB or cisplatin combos (AID 1671458); settings: MDA-MB-436 breast carcinoma growth inhibition, drug combinations; measured here: BGB combination; at 5 µM; stronger effect = higher value;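 further: cells exposed for 96 hours; 0% = vehicle DMSO and 100% = killing by high DMSO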
Measurement name: inhibition (%)
Write the answer as a number in %, unit excluded.

Check out these entries, answers already filled in.
Molecule	inhibition / %
CCc1c2c(nc3ccc(O)cc13)-c1cc3c(c(=O)n1C2)COC(=O)[C@]3(O)CC	73.3
Cc1c(-c2cnccn2)ssc1=S	-36
O=c1cc(-c2cccc3c2Sc2ccccc2S3)oc(N2CCOCC2)c1	-25.2
CC(C)N=c1cc2n(-c3ccc(Cl)cc3)c3ccccc3nc-2cc1Nc1ccc(Cl)cc1	-11.8

What value of inhibition has been recorded for this entry: O=c1[nH]c(-c2ccc(C(F)(F)F)cc2)nc2c1CSCC2 -2.42

Consider the molecule CO[C@H]1/C=C/O[C@@]2(C)Oc3c(C)c(O)c4c(O)c(c(C=NN5CCN(C)CC5)c(O)c4c3C2=O)NC(=O)/C(C)=C\C=C\[C@H](C)[C@H](O)[C@@H](C)[C@@H](O)[C@@H](C)[C@H](OC(C)=O)[C@@H]1C and give its measured inhibition. 1.85

Param item = NC(=O)c1ncn(C2OC(CO)C(O)C2O)n1 (configuration not stated) ; retrieve measured inhibition. -7.02

* * *

system: R275C/beta2Delta; test: modulators of BK channel variants, profiling panel, selectivity assay, cell-based, U2OS BacMam, thallium flux, beta subunits (AID 1259406); details: at 30 µM;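 further: initial slope of Thallos dye fluorescence rise after thallium is added; log ratio against the mean of 0.3% DMSO vehicle wells on the same plate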
The source made the active and inactive calls.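 The calls were made as follows: active = thallium flux through the channel raised or lowered by more than 3 SD from vehicle-only wells, actives on both sides; inactive = the rest.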
// allowed return values: label 1 = active, label 0 = inactive

Compound	Class label
O=C(CCn1nc(-c2ccc(F)cc2)ccc1=O)NCc1ccccc1	label 0
CS(=O)(=O)NNc1c(Cl)cc(Cl)cc1Cl	label 0
Cc1c(C)c(C)c(C(=O)c2ccccc2C(=O)NN)c(C)c1C	label 0
COC(=O)C(C#N)=C1NC(C)=NC(SC)=C1C#N	label 0
CON=C(C(=O)N[C@@H]1C(=O)N2C(C(=O)O)=C(COC(N)=O)CS[C@H]12)c1ccco1	label 0
CN(C1CCCCC1)S(=O)(=O)c1cccs1	label 0
C[C@]12C=CC(=O)C=C1CC[C@@H]1[C@@H]2[C@@H](O)C[C@@]2(C)[C@H]1CC[C@]2(O)C(=O)COC(=O)CCC(=O)O	label 0
Cc1cc(C(=O)ON=C(N)c2ccc([N+](=O)[O-])o2)no1	label 0
CCc1cc(C(=O)c2ccc(OC)cc2)c(NC(=O)CN2CCN(C)CC2)s1	label 0
N#Cc1c(F)cccc1NC1CCN(Cc2ccccc2)CC1	label 0

Could you check what this test reported for CCOC(=O)NN=C(C)C(C)=NNC(=O)OCC ? label 0

Which outcome was assigned to CC(=O)O[C@@]12CO[C@@H]1C[C@H](O)[C@@]1(C)C(=O)[C@H](O)C3=C(C)[C@@H](OC(=O)[C@H](O)[C@@H](NC(=O)OC(C)(C)C)c4ccccc4)C[C@](O)([C@@H](OC(=O)c4ccccc4)[C@H]21)C3(C)C in this test? label 0

Which outcome was assigned to O=C(CN1CCOCC1)Nc1ccccc1Sc1nccc(C(F)(F)F)n1 in this test? label 0

Returns: the outcome recorded for CC1(C)CCc2cc(C=NNC(=O)c3cccc(Cl)c3Cl)ccc2O1 in this assay. label 0

Which outcome was entered for the compound COc1ccc(C[C@H](C)NC[C@@H](O)c2ccc(O)c(NC=O)c2)cc1 in this test? label 0

Which outcome was assigned to CC1(C)SC2C(NC(=O)Cc3ccccc3)C(=O)N2C1C(=O)O (stereo not drawn) in this test? label 0

Which outcome was assigned to CN1c2ccccc2C(C)(C)C12C=Cc1cc(Br)cc([N+](=O)[O-])c1O2 (stereo not drawn) in this test? label 1

Fill in: this test's call for Cc1nnc(SCC2=C(C(=O)O)N3C(=O)C(NC(=O)Cn4cnnn4)C3SC2)s1 (stereo not drawn) is ___ label 0

Just curious, what result did COc1cc(C(=O)Nc2ccccc2C(=O)NCCc2ccccn2)cc(OC)c1OC get here? label 0

Which outcome did this test record for the compound Cn1c(C(=O)O)ccc1S(=O)(=O)N(Cc1ccccc1)Cc1ccccc1 ? label 1

# fetch the recorded call for O=C(O)c1ccccc1C(=O)NCc1ccccc1OC(F)(F)F here label 0

Answer briefly: the call reported for CN/C(=C\[N+](=O)[O-])NCCSCc1csc(CN(C)C)n1 in this assay. label 0

Record request — test call for CC(=O)N(C(C)=O)c1ccc2c3c(cccc13)CC2 label 0

I would be grateful if you could indicate the recorded call for Cn1c(C(F)(F)F)nnc1S(=O)(=O)Cc1ccc(-c2csnn2)cc1 . label 0

# outcome recorded in this test, key = Oc1c(Cl)c(Cl)c(Cl)c2ccccc12 label 1

* * *

test system: F380Y; assay: modulators of BK channel variants, profiling panel, selectivity assay, cell-based, U2OS BacMam, thallium flux, beta subunits (AID 1259406); details: at 30 µM;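 further: initial slope of Thallos dye fluorescence rise after thallium is added; log ratio against the mean of 0.3% DMSO vehicle wells on the same plate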
Would you mind classing the entries by log fold change Tl+ flux? Ranges: lower band = under -0.01, central band = from -0.01 up to 0.02, upper band = 0.02 and over

Recorded results for 10 compounds are shown here.
Compound	Class label
CCc1cc(C(=O)c2ccc(OC)cc2)c(NC(=O)CN2CCN(C)CC2)s1	lower band
O=C(Nc1ccc(OC(F)(F)F)cc1)Nc1cc(C(F)(F)F)ccc1N1CCOCC1	upper band
O=C1c2cccc3c(Sc4ccccc4)ccc(c23)C(=O)N1CCc1ccccn1	central band
O=C(OC1C[C@@H]2CC3C[C@H](C1)N2CC3=O)c1c[nH]c2ccccc12 (stereo partly drawn)	upper band
Cc1cc(NS(=O)(=O)c2ccc(NC(=O)c3nccnc3C(=O)O)cc2)no1	lower band
CN(C)C1C(=O)C(C(N)=O)=C(O)C2(O)C(=O)C3=C(O)c4c(O)ccc(Cl)c4C(O)C3CC12 (stereo not drawn)	lower band
COc1ccc2c(OC(C)=O)coc2c1	central band
CCN(CC)CCOc1ccc(C(=C(Cl)c2ccccc2)c2ccccc2)cc1	central band
Nc1ccc2cn[nH]c2c1	lower band
Cc1ccc(C(=O)CC(=CC(=C(C#N)c2ccc([N+](=O)[O-])cc2)c2ccc(C)cc2)c2ccccc2)cc1	central band

Kindly identify the class of O=S(=O)(c1ccc(-c2cc(C(F)(F)F)on2)s1)N1CCc2c([nH]c3ccc(F)cc23)C1 . upper band

Lab note: which band did FC(F)(F)c1ccc(-c2csc(C3(c4ccc(Cl)cc4Cl)CC3)n2)cc1 land in? lower band

Classify this compound: C1=CC=CC(C2C=CC=CC=C2)C=C1 upper band

Using the reported log fold change Tl+ flux, which band applies to CN1c2ccsc2C(=O)C(=NNc2cccc(C(F)(F)F)c2)S1(=O)=O ? lower band

Assign a category based on measured log fold change Tl+ flux for Cc1cc2c(s1)Nc1ccccc1N=C2N1CCN(C)CC1 and give only the class name. upper band

GET /class?item= N=C(N)Cc1c(Cl)cccc1Cl central band

Textbook exercise: identify the category of the compound given here, OC(Cc1ccccc1)(c1ccccc1)c1ccccc1N=Cc1ccc2c(c1)OCO2 (stereo not drawn) , according to its measured value. central band

Assign a category based on measured log fold change Tl+ flux for CN(C)CCOc1ccc(/C(=C(/CCCl)c2ccccc2)c2ccccc2)cc1 and give only the class name. central band

// return the class label for Cc1ccccc1C=C1N=C(c2ccccc2)OC1=O lower band

* * *

system: F380Y/beta1; test: modulators of BK channel variants, profiling panel, selectivity assay, cell-based, U2OS BacMam, thallium flux, beta subunits (AID 1259406); conditions: at 30 µM;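 further: initial slope of Thallos dye fluorescence rise after thallium is added; log ratio against the mean of 0.3% DMSO vehicle wells on the same plate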
Output T for records whose log fold change Tl+ flux is lower than -0.004, F for records at or above -0.004.

Molecule	Class label
O=c1[nH]c2ccc(Cl)cc2c2oc(-c3ccccc3)nc12	F
NC(=O)CN1C(=O)C(=Cc2ccco2)N=C1c1ccccc1	T
CN(C)C1C(=O)C(C(N)=O)=C(O)C2(O)C(=O)C3=C(O)c4c(O)ccc(Cl)c4C(O)C3CC12 (stereo unspecified)	F
O=C(c1ccccc1)c1c(Cl)cc(C(F)(F)F)cc1Cl	F
Clc1cc(Cl)cc(Nc2ncnc(-n3cccc3)n2)c1	F
O=C(O)c1cccc(CSc2cccs2)c1	F
CN1C2CCC1CC(OC(c1ccccc1)c1ccccc1)C2 (stereo unspecified)	F
C=CCNC(SC)=C(C#N)C(N)=O	T

# TODO verify log fold change Tl+ flux < -0.004 strictly for this molecule: O=C(Nc1csc(Cc2c(Cl)cccc2Cl)n1)NN1CCOCC1 F

Lab note: confirm whether the reported log fold change Tl+ flux for this molecule is below -0.004, equality not counting. molecule: CC(C)(C)NC(=O)[C@@H]1C[C@@H]2CCCC[C@@H]2CN1C[C@@H](O)[C@H](Cc1ccccc1)NC(=O)[C@H](CC(N)=O)NC(=O)c1ccc2ccccc2n1 T

Identify whether the molecule O=C(c1ccc(-c2cccs2)s1)c1ccc(F)cc1F records log fold change Tl+ flux below -0.004. F

* * *

test: HepG2 cytotoxicity, primary screen, cytotoxicity control for P. falciparum antimalarial project, cell-based, ATP luminescence (AID 2303); details: HepG2 viability, 24-48 h, at 10 µM, stronger effect = higher value;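 further: 0% = DMSO wells and 100% = digitonin-killed cells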
Measurement name: inhibition (%)
Value expressed in %; do not type the unit.

Compound	Result unit	inhibition
O=C(/C=C/c1ccc(C(F)(F)F)cc1)NCCCCCN1CCCN(C(=O)Nc2cccc(Cl)c2)CC1	%	16
CCN(CC)CCNC(=O)c1ccc(NC(=O)c2cc(-c3ccncc3)nc3ccccc23)cc1	%	1

Name the reported inhibition value associated with the compound COc1ccc(CN2CCN(Cc3cc(Cl)ccc3O)CC2CCO)c(C)c1C (stereo not given) 1

Which measured inhibition value corresponds to O=C(Nc1ccc(Cl)cc1)c1cccc(CN2CCCN(Cc3cccc(O)c3)CC2)c1 ? 14

// query inhibition value for entry CCOc1cc(C)ccc1C1CCN(CCCCNC(=O)c2cnc(-c3ccc(C(F)(F)F)cc3)[nH]2)CC1 16
